test.system: stromelysine of human origin (Homo sapiens, UniProt P08254)
Sequence (P08254 100-477): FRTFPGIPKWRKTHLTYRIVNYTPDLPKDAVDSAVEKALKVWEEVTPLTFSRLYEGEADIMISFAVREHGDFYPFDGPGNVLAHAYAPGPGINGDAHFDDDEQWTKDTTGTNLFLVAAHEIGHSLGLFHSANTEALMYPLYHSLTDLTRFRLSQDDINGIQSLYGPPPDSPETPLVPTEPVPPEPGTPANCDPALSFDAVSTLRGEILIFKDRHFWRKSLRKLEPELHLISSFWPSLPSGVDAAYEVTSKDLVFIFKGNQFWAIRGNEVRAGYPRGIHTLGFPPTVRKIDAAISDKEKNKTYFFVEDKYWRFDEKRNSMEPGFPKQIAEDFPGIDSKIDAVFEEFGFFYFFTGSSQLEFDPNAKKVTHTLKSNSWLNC
run.description: Activity on stromelysine
Type: biochemical
experimental.parameters: radiomarked transferrin, 37° C., 16 hours; read-out: C150 (nM) stromelysine
readout.label: IC50 (nM)

[I] CSCCNC(=O)[C@H](Cc1ccc(I)cc1)NC(=O)[C@](O)(CC(C)C)[C@H](C)C(=O)NO [Example 15]
[II] COc1ccc(C[C@H](NC(=O)[C@](O)(CC(C)C)[C@H](C)C(=O)NO)C(=O)NCc2ccccc2)cc1 [Example 5]
[III] CNC(=O)[C@H](Cc1ccc(Cl)c(Cl)c1)NC(=O)[C@](O)(CC(C)C)[C@H](C)C(=O)NO [Example 18]
[IV] CNC(=O)[C@@H](NC(=O)[C@](O)(CC(C)C)[C@H](C)C(=O)NO)C(C)(C)C [Example 2]
# order the molecules above by IC50, highest value first Please list each label once, in the requested order.
IV, I, II, III

[I] CNC(=O)[C@H](Cc1ccc(N)cc1)NC(=O)[C@](O)(CC(C)C)[C@H](C)C(=O)NO [Example 9]
[II] CNC(=O)[C@H](Cc1ccccc1)NC(=O)[C@](O)(CC(C)C)[C@H](C)C(=O)NO [Example 4]
[III] CNC(=O)[C@H](Cc1ccc(I)cc1)NC(=O)[C@](O)(CC(C)C)[C@H](C)C(=O)NO [Example 14]
[IV] CSCCNC(=O)[C@H](Cc1ccc(Cl)cc1)NC(=O)[C@](O)(CC(C)C)[C@H](C)C(=O)NO [Example 13]
[V] CNC(=O)[C@H](Cc1ccc(OC)cc1)NC(=O)[C@](O)(CC(C)C)[C@H](OC)C(=O)NO [Example 31]
List the 5 entries from lowest IC50 to highest IC50 value. Please list each label once, in the requested order.
III, IV, II, I, V
(III: 12 nM, IV: 20 nM, II: 29 nM, I: 50 nM, V: 90 nM)

[a] CNC(=O)[C@H](Cc1ccc(Br)cc1)NC(=O)[C@](O)(CC(C)C)[C@H](C)C(=O)NO [Example 11]
[b] CNC(=O)[C@H](Cc1ccc(OC)cc1)NC(=O)[C@](O)(CC(C)C)[C@H](C)C(=O)NO [Example 1]
[c] CNC(=O)[C@H](Cc1ccc(OC)cc1)NC(=O)[C@H](CC(C)C)[C@H](C)C(=O)NO [drawing 111, reference compound]
Highest IC50 first, then in falling order down to the smallest. Please list each label once, in the requested order.
a, b, c

---

test.system: 72 kDa gelatinase of human origin (Homo sapiens, UniProt P08253)
Sequence (P08253 110-660): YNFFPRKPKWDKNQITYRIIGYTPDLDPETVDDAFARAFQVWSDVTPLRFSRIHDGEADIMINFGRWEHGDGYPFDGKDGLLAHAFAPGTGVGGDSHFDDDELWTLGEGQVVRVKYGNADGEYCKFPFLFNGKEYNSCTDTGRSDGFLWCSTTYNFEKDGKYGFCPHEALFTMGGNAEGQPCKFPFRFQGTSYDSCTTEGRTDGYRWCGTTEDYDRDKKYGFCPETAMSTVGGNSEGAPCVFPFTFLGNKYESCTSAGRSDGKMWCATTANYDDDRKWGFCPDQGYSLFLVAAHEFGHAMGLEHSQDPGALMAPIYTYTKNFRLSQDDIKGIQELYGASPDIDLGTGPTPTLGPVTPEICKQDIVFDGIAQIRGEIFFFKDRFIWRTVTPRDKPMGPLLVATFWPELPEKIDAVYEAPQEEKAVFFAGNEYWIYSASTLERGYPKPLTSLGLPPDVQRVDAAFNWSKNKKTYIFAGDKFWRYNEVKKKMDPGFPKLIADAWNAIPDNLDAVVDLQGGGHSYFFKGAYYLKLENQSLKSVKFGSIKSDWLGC
run.description: Activity on gelatinase, synthetic substrate
Format: biochemical
experimental.parameters: performed on synthetic substrate; read-out: C150 (nM) gelatinase 72 kDa**
Description: The anti-gelatinase activity of the compounds according to the invention was determined on 72 kDa gelatinase of human origin, in accordance with the operating mode described by Knight, C. G., Willenbrock, F., Murphy, G. (FEBS Letters, 296 (3), 263-266, 1992). The gelatinase was incubated at 37° C. for 10 minutes, and its activity was determined by the increase in fluorescence of the product of Mca-Pro-Leu breakdown of the Mca-Pro-Leu-Gly-Leu-Dpa-Ala-Arg-NH2 synthetic substrate. […]
readout.label: IC50 (nM)

Study these solved cases before continuing.
The compound listed as CNC(=O)[C@H](Cc1ccc(F)cc1)NC(=O)[C@](O)(CC(C)C)[C@H](C)C(=O)NO [Example 16] shows IC50 equal to 1.2

The compound listed as CNC(=O)[C@H](Cc1ccc(OC)cc1)NC(=O)[C@](O)(C(C)C)[C@H](C)C(=O)NO [Example 7] shows IC50 equal to 18

The compound listed as CSCCNC(=O)[C@H](Cc1ccc(Cl)cc1)NC(=O)[C@](O)(CC(C)C)[C@H](C)C(=O)NO [Example 13] shows IC50 equal to 1.6

The compound listed as CSCCNC(=O)[C@H](Cc1ccc(I)cc1)NC(=O)[C@](O)(CC(C)C)[C@H](C)C(=O)NO [Example 15] shows IC50 equal to 1.3

The compound listed as CCC[C@H](C(=O)NO)[C@@](O)(CC(C)C)C(=O)N[C@@H](Cc1ccc(Cl)cc1)C(=O)NC [Example 17] shows IC50 equal to 1.6

[P] CNC(=O)[C@H](Cc1ccc(Cl)cc1Cl)NC(=O)[C@](O)(CC(C)C)[C@H](C)C(=O)NO [Example 20]
[Q] CNC(=O)[C@H](Cc1ccc(OC)cc1)NC(=O)[C@](O)(CC(C)C)[C@H](O)C(=O)NO [Example 29]
Lab note: check whether P or Q shows the higher recorded IC50. Answer by quoting the chosen item's label.
Q
(Q: 13 nM, P: 1.6 nM)

---

test.system: 72 kDa gelatinase of human origin (Homo sapiens, UniProt P08253)
run.description: Activity on gelatinase, synthetic substrate
Assay type: biochemical
experimental.parameters: performed on synthetic substrate; read-out: C150 (nM) gelatinase 72 kDa**
readout.label: IC50 (nM)

The compound listed as CNC(=O)[C@H](Cc1ccc(Cl)c(Cl)c1)NC(=O)[C@](O)(CCCc1ccccc1)[C@H](C)C(=O)NO shows IC50 equal to 0.01

The compound listed as CNC(=O)[C@@H](NC(=O)[C@](O)(CC(C)C)[C@H](C)C(=O)NO)C(C)(C)C shows IC50 equal to 3.4

The compound listed as COc1ccc(C[C@H](NC(=O)[C@](O)(CC(C)C)[C@H](C)C(=O)NO)C(=O)NCc2ccccc2)cc1 shows IC50 equal to 2.4

The compound listed as CNC(=O)[C@H](Cc1ccc(OC)cc1)NC(=O)[C@H](CC(C)C)[C@H](C)C(=O)NO [drawing 111, reference compound] shows IC50 equal to 0.6

The compound listed as CNC(=O)[C@H](Cc1ccc(Cl)cc1)NC(=O)[C@](O)(CC(C)C)[C@H](O)C(=O)NO shows IC50 equal to 6.7

[a] CNC(=O)[C@H](Cc1ccc(I)cc1)NC(=O)[C@](O)(CC(C)C)[C@H](C)C(=O)NO
[b] CC(C)C[C@@](O)(C(=O)N[C@@H](Cc1ccc(Cl)c(Cl)c1)C(=O)NCCOCCO)[C@H](C)C(=O)NO
[c] CNC(=O)[C@H](Cc1ccc(Cl)cc1)NC(=O)[C@](O)(CC(C)C)[C@H](C)C(=O)NO
[d] CNC(=O)[C@H](Cc1ccc(OC)cc1)NC(=O)[C@](O)(CC(C)C)[C@H](OC)C(=O)NO
Highest IC50 first, then in falling order down to the smallest. Please list each label once, in the requested order.
d, c, b, a
(d: 18 nM, c: 1 nM, b: 0.7 nM, a: 0.3 nM)

[P] COCCOCCNC(=O)[C@H](Cc1ccc(Cl)c(Cl)c1)NC(=O)[C@](O)(CC(C)C)[C@H](C)C(=O)NO
[Q] C[C@H](C(=O)NO)[C@@](O)(CCCc1ccccc1)C(=O)N[C@@H](CC1CCCCC1)C(=O)NCCc1ccccc1
[R] CNC(=O)[C@H](Cc1ccccc1)NC(=O)[C@](O)(CC(C)C)[C@H](C)C(=O)NO
List the 3 entries from lowest IC50 to highest IC50 value. Please list each label once, in the requested order.
P, Q, R
(P: 0.14 nM, Q: 0.8 nM, R: 1.6 nM)

[I] CNC(=O)[C@H](Cc1ccc(OC)cc1)NC(=O)[C@](O)(CC(C)C)[C@H](C)C(=O)NO
[II] CNC(=O)[C@H](Cc1ccc(N)cc1)NC(=O)[C@](O)(CC(C)C)[C@H](C)C(=O)NO
[III] CNC(=O)[C@H](Cc1ccc(Cl)c(Cl)c1)NC(=O)[C@](O)(CC(C)C)[C@H](C)C(=O)NO
Highest IC50 first, then in falling order down to the smallest. Please list each label once, in the requested order.
II, I, III

---

Test system: release of TNF from the peritoneal macrophages of mice stimulated by LPS
run.description: Inhibition of the production of TNF in vitro
Type: cell-based
experimental.parameters: Peritoneal macrophage; mouse peritoneal macrophages, LPS 100 ng/ml; read-out: C150 (μM) TNF
readout.label: IC50 (µM)

Study these solved cases before continuing.
Measured on release of TNF from the peritoneal macrophages of mice stimulated by LPS, CC(C)C[C@@](O)(C(=O)N[C@@H](Cc1ccc(Cl)c(Cl)c1)C(=O)NCCN1CCOCC1)[C@H](C)C(=O)NO [Example 35b] has a documented IC50 of 0.3

Measured on release of TNF from the peritoneal macrophages of mice stimulated by LPS, CNC(=O)[C@H](Cc1ccc(OC)cc1)NC(=O)[C@H](CC(C)C)[C@H](C)C(=O)NO [drawing 111, reference compound] has a documented IC50 of 0.14

Measured on release of TNF from the peritoneal macrophages of mice stimulated by LPS, CNC(=O)[C@H](Cc1ccc(Cl)cc1)NC(=O)[C@](O)(CC(C)C)[C@H](O)C(=O)NO [Example 3] has a documented IC50 of 3.2

Measured on release of TNF from the peritoneal macrophages of mice stimulated by LPS, CNC(=O)[C@H](Cc1ccc(Cl)cc1)NC(=O)[C@](O)(CC(C)C)[C@H](C)C(=O)NO [Example 10] has a documented IC50 of 0.4

[a] CNC(=O)[C@H](Cc1c[nH]c2ccccc12)NC(=O)[C@](O)(CC(C)C)[C@H](C)C(=O)NO [Example 26]
[b] CCC[C@H](C(=O)NO)[C@@](O)(CC(C)C)C(=O)N[C@@H](Cc1ccc(Cl)cc1)C(=O)NC [Example 17]
Lab note: check whether a or b shows the higher recorded IC50. Answer by quoting the chosen item's label.
a
(a: 4.4 µM, b: 0.27 µM)

Ref: patent US6344457B1
